System: Vaccinia virus
assay.text: Antiviral activity against Vaccinia virus infected in African green monkey BSC-1 cells assessed as inhibition of virus multiplication at 100 ug/ml after 96 hrs by plaque reduction assay
Type: functional
condition.details: Orthopoxvirus vaccinia, BSC-1, 96 h

>  <smiles.entry>
Nc1ncn(Cc2cccc(Cl)c2)c2ncnc1-2

>  <inhibition at 100 µg/mL>
100%

$$$$
>  <smiles.entry>
CCn1cnc(N)c2ncnc1-2

>  <inhibition at 100 µg/mL>
0%

$$$$
>  <smiles.entry>
Nc1ncn(Cc2ccccc2)c2ncnc1-2

>  <inhibition at 100 µg/mL>
3%

$$$$
>  <smiles.entry>
CCCn1cnc(N)c2ncnc1-2

>  <inhibition at 100 µg/mL>
0%

$$$$
>  <smiles.entry>
CC(C)CCn1cnc(N)c2ncnc1-2

>  <inhibition at 100 µg/mL>
8%

$$$$
>  <smiles.entry>
Nc1ncn(Cc2ccco2)c2ncnc1-2

>  <inhibition at 100 µg/mL>
0%

$$$$
>  <smiles.entry>
CCCCCn1cnc(N)c2ncnc1-2

>  <inhibition at 100 µg/mL>
96%

$$$$
>  <smiles.entry>
CCCCn1cnc(N)c2ncnc1-2

>  <inhibition at 100 µg/mL>
1%

$$$$

====

assayed.system: Dopamine beta-hydroxylase (Bos taurus, UniProt P15101)
Sequence (P15101 whole entry): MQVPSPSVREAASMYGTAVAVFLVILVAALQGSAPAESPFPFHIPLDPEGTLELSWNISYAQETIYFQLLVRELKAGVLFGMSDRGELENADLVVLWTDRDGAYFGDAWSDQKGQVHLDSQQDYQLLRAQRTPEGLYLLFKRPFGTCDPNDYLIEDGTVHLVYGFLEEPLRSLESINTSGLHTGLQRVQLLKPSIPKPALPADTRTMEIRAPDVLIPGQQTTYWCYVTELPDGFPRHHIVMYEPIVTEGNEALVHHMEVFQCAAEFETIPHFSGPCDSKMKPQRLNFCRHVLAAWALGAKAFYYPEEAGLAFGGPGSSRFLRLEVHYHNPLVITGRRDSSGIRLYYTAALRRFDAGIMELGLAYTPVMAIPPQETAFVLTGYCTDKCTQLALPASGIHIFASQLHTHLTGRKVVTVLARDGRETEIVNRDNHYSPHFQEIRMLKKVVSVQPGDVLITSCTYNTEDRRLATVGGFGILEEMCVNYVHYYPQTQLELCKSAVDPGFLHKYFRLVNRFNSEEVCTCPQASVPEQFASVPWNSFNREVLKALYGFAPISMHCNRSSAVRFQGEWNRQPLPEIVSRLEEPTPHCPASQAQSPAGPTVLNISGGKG
assay.text: Inhibition of bovine adrenal medullae dopamine-beta-hydroxylase
Set-up: species or system Adrenal medulla
condition.details: read-out: I50 (converted)
We'd kindly ask you to apply these IC50 classes: band A (below 80 µM), band B (80 µM to below 700 µM), band C (700 µM or more)

>  <smiles.entry>
CC(C)CCn1cnc(N)c2ncnc1-2

>  <assayed.system>
Dopamine beta-hydroxylase (Bos taurus, UniProt P15101)

>  <cat>
band C

$$$$
>  <smiles.entry>
CCCCCCn1cnc(N)c2ncnc1-2

>  <assayed.system>
Dopamine beta-hydroxylase (Bos taurus, UniProt P15101)

>  <cat>
band A

$$$$
>  <smiles.entry>
Cc1ccccc1Cn1cnc(N)c2ncnc1-2

>  <assayed.system>
Dopamine beta-hydroxylase (Bos taurus, UniProt P15101)

>  <cat>
band C

$$$$
>  <smiles.entry>
Nc1ncn(Cc2ccc(Cl)cc2)c2ncnc1-2

>  <assayed.system>
Dopamine beta-hydroxylase (Bos taurus, UniProt P15101)

>  <cat>
band A

$$$$
>  <smiles.entry>
CCCCCn1cnc(N)c2ncnc1-2

>  <assayed.system>
Dopamine beta-hydroxylase (Bos taurus, UniProt P15101)

>  <cat>
band A

$$$$
>  <smiles.entry>
CCCn1cnc(N)c2ncnc1-2

>  <assayed.system>
Dopamine beta-hydroxylase (Bos taurus, UniProt P15101)

>  <cat>
band C

$$$$
>  <smiles.entry>
CCCCn1cnc(N)c2ncnc1-2

>  <assayed.system>
Dopamine beta-hydroxylase (Bos taurus, UniProt P15101)

>  <cat>
band B

$$$$
>  <smiles.entry>
Nc1ncn(Cc2cccc(C(F)(F)F)c2)c2ncnc1-2

>  <assayed.system>
Dopamine beta-hydroxylase (Bos taurus, UniProt P15101)

>  <cat>
band A

$$$$
>  <smiles.entry>
Nc1ncn(Cc2cccc(Cl)c2)c2ncnc1-2

>  <assayed.system>
Dopamine beta-hydroxylase (Bos taurus, UniProt P15101)

>  <cat>
band A

$$$$
>  <smiles.entry>
Nc1ncn(Cc2ccccc2Br)c2ncnc1-2

>  <assayed.system>
Dopamine beta-hydroxylase (Bos taurus, UniProt P15101)

>  <cat>
band B

$$$$
>  <smiles.entry>
Cc1cccc(Cn2cnc(N)c3ncnc2-3)c1

>  <assayed.system>
Dopamine beta-hydroxylase (Bos taurus, UniProt P15101)

>  <cat>
band B

$$$$

====

System: Vaccinia virus
assay.text: Antiviral activity against Vaccinia virus infected in African green monkey BSC-1 cells assessed as inhibition of virus multiplication at 3 ug/ml after 96 hrs by plaque reduction assay
Type: functional
condition.details: Orthopoxvirus vaccinia, BSC-1, 96 h

>  <smiles.entry>
Nc1ncn(Cc2ccccc2Br)c2ncnc1-2

>  <inhibition at 3 µg/mL (%)>
0

$$$$
>  <smiles.entry>
Nc1ncn(Cc2ccc(Cl)c(Cl)c2)c2ncnc1-2

>  <inhibition at 3 µg/mL (%)>
47

$$$$
>  <smiles.entry>
Cc1ccc(Cn2cnc(N)c3ncnc2-3)cc1C

>  <inhibition at 3 µg/mL (%)>
0

$$$$
>  <smiles.entry>
Nc1ncn(Cc2ccccc2Cl)c2ncnc1-2

>  <inhibition at 3 µg/mL (%)>
0

$$$$

====

IC50 overview
assayed.system: Dopamine beta-hydroxylase (Bos taurus)
assay.text: Inhibition of bovine adrenal medullae dopamine-beta-hydroxylase
Design: species or system Adrenal medulla
condition.details: read-out: I50 (converted)

>  <smiles.entry>
Nc1ncn(Cc2ccc(Cl)c(Cl)c2)c2ncnc1-2

>  <reported.relation>
=

>  <IC50, µM>
6.8

$$$$
>  <smiles.entry>
Cc1ccc(Cn2cnc(N)c3ncnc2-3)cc1

>  <reported.relation>
=

>  <IC50, µM>
83.6

$$$$
>  <smiles.entry>
Nc1ncn(Cc2ccccc2Cl)c2ncnc1-2

>  <reported.relation>
=

>  <IC50, µM>
770

$$$$
>  <smiles.entry>
Nc1ncn(CC2CCCCC2)c2ncnc1-2

>  <reported.relation>
=

>  <IC50, µM>
8.65

$$$$
>  <smiles.entry>
CCn1cnc(N)c2ncnc1-2

>  <reported.relation>
>

>  <IC50, µM>
1230

$$$$
>  <smiles.entry>
Nc1ncn(Cc2ccccc2)c2ncnc1-2

>  <reported.relation>
=

>  <IC50, µM>
8.88

$$$$
